Record set: IC50 | M-phase inducer phosphatase 2 (Homo sapiens, UniProt P30305) | literature, multiple sources.
property_label: IC50

In [3]: df
Out[3]:
                                   molecule  measured_value
0  Cc1cc2ccc1[C@@H]1CC[C@H]([C@H](C)CCCC(C)C)[C@@]1(C)CCCC(C)CC[C@](C)(O)C2 (stereo partly specified)         > 30 µM
1  CC(C)(C)OC(=O)N[C@@H](COCc1cn([C@@H]2O[C@H](CO)[C@@H](O)[C@H](O)[C@H]2O)nn1)C(=O)O        > 120 µM
2  COC(=O)c1cc2ccc1[C@@H]1CC[C@H]([C@H](C)CCCC(C)C)[C@@]1(C)CC/C=C(/C)CCC(=O)C2         > 30 µM
3  CC(=O)O[C@@]1(C)CCC(C)CCC[C@]2(C)[C@@H]([C@H](C)CCCC(C)C)CC[C@H]2c2ccc(cc2CN2CCOCC2)C1 (stereo partly specified)         > 30 µM
4  CCCCCCCCCCCCCCCC(NCc1cccc(C)c1)=C1C(=O)OC(CO)C1=O (mixture of isomers)        > 100 µM
5  CC(=O)c1cc2ccc1[C@@H]1CC[C@H]([C@H](C)CCCC(C)C)[C@@]1(C)CC/C=C(/C)CC[C@](C)(O)C2         > 30 µM
